These entries and their values trace back to the supplement of paper PMC7877785.

assay-overview: self-splicing fitness, log relative to wild type (ln ratio); higher = more splicing; Tetrahymena group I intron in knt gene, E. coli kanamycin selection, DiMSum; sequences stand for … in CUCUCU…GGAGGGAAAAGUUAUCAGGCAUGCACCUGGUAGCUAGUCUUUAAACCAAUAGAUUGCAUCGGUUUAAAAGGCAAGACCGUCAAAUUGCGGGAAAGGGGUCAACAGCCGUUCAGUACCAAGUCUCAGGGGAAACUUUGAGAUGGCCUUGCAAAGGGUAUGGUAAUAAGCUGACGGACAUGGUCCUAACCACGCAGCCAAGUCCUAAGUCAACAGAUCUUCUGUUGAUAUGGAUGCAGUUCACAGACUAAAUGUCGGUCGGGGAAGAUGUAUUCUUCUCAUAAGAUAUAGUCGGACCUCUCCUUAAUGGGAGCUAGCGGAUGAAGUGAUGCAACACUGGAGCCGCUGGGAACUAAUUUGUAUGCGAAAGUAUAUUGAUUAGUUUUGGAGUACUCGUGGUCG;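 further: selection with 25 µg/mL kanamycin versus none on LB agar overnight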
measurement-parameters: 37 °C
result-type: self-splicing fitness (ln)
A bare number is all that is needed in reply.

// known answers, use as guide
GCGGAGCAAUAUUACGUGCG    -2.55
CCAGAGCAAUAUUACGUGAU    -2.67

Now look at this entry.
The sequence UAGUAGCAAUAUUACGCGAA showed self-splicing fitness (ln) equal to -2.45

###

assay-overview: self-splicing fitness, log relative to wild type (ln ratio); higher = more splicing; Tetrahymena group I intron in knt gene, E. coli kanamycin selection, DiMSum; sequences stand for … in CUCUCU…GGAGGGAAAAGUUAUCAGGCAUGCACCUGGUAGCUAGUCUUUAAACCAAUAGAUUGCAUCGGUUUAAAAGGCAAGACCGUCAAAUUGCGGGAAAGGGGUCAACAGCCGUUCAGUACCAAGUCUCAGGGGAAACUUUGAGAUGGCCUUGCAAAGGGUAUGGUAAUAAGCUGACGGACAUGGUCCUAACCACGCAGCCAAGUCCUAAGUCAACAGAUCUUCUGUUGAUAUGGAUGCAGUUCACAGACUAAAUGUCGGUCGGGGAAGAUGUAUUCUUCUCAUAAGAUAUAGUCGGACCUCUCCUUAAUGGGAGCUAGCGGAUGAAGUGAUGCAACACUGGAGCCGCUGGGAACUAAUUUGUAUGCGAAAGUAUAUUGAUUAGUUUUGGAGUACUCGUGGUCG
measurement-parameters: 30 °C
result-type: self-splicing fitness (ln)
A bare number is all that is needed in reply.

// known answers, use as guide
GAAGAGCAAUAUUACGUGUU    -4.18
GGUUAGCAAUAUUACGCCUU    -1.48
AAACAGCAAUAUUACGUAGU    -1.64
AACCAGCAAUAUUACGAGUG    -0.0963

Now look at this entry.
The sequence CCAGAGCAAUAUUACGUAGA showed self-splicing fitness (ln) equal to -1.88

###

assay-overview: self-splicing fitness, log relative to wild type (ln ratio); higher = more splicing; Tetrahymena group I intron in knt gene, E. coli kanamycin selection, DiMSum; sequences stand for … in CUCUCU…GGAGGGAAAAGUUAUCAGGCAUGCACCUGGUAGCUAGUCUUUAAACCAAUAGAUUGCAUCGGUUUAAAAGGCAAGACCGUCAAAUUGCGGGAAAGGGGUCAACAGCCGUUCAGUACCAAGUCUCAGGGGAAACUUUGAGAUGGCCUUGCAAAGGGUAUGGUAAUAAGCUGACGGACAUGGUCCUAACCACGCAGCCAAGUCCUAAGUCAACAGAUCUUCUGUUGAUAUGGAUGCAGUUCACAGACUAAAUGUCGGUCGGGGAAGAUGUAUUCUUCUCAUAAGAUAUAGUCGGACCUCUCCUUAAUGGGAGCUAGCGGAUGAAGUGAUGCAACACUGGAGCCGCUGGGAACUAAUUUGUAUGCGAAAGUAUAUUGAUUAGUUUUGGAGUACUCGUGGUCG
measurement-parameters: 30 °C
result-type: self-splicing fitness (ln)

CACGAGCAAUAUUACGUCGU    -2.05
GCACAGCAAUAUUACGCCGG    -1.25
GGGUAGCAAUAUUACGAGGC    -3.89
AAUUAGCAAUAUUACGUGAC    -2.05
CAGGAGCAAUAUUACGCGAA    -1.4
ACGAAGCAAUAUUACGGAAA    -2.38
CUCGAGCAAUAUUACGGAGU    -3.07
UGCAAGCAAUAUUACGGAUC    -3.09

The sequence CUUCAGCAAUAUUACGUUCG showed self-splicing fitness (ln) equal to -0.922

The sequence UAACAGCAAUAUUACGCGGG showed self-splicing fitness (ln) equal to -2.44

The sequence UGGUAGCAAUAUUACGGACA showed self-splicing fitness (ln) equal to -0.879

The sequence AACGAGCAAUAUUACGAGGU showed self-splicing fitness (ln) equal to -3.56

The sequence UUUCAGCAAUAUUACGUCAG showed self-splicing fitness (ln) equal to -0.968

The sequence CCAUAGCAAUAUUACGUCGA showed self-splicing fitness (ln) equal to -3.03

The sequence AGAAAGCAAUAUUACGCGGU showed self-splicing fitness (ln) equal to -3.13

The sequence AACCAGCAAUAUUACGCUCA showed self-splicing fitness (ln) equal to -0.325

The sequence ACAGAGCAAUAUUACGCCUU showed self-splicing fitness (ln) equal to -3.76

The sequence AUAUAGCAAUAUUACGCUAG showed self-splicing fitness (ln) equal to -1.69

The sequence ACGAAGCAAUAUUACGGUAA showed self-splicing fitness (ln) equal to -2.49

The sequence UUGUAGCAAUAUUACGGCCG showed self-splicing fitness (ln) equal to -0.356

The sequence CAUAAGCAAUAUUACGCGCU showed self-splicing fitness (ln) equal to -3.52

The sequence AUCGAGCAAUAUUACGUAAA showed self-splicing fitness (ln) equal to -3.43

The sequence GAAGAGCAAUAUUACGCUUA showed self-splicing fitness (ln) equal to -3.49

The sequence CGUGAGCAAUAUUACGGGUC showed self-splicing fitness (ln) equal to -4

The sequence CGAAAGCAAUAUUACGGAGC showed self-splicing fitness (ln) equal to -4.16

The sequence CACAAGCAAUAUUACGCACG showed self-splicing fitness (ln) equal to -0.378

The sequence CUAAAGCAAUAUUACGCUGG showed self-splicing fitness (ln) equal to -3.74

The sequence UAGUAGCAAUAUUACGGUCU showed self-splicing fitness (ln) equal to -1.79

The sequence GCGUAGCAAUAUUACGUACG showed self-splicing fitness (ln) equal to -3.93
